target: UniProt:P13631; experiment: RAR γ Kd; type: binding; settings: last item of cell EC50/(EFFICACY)/Kd
Sequence (P13631 whole entry): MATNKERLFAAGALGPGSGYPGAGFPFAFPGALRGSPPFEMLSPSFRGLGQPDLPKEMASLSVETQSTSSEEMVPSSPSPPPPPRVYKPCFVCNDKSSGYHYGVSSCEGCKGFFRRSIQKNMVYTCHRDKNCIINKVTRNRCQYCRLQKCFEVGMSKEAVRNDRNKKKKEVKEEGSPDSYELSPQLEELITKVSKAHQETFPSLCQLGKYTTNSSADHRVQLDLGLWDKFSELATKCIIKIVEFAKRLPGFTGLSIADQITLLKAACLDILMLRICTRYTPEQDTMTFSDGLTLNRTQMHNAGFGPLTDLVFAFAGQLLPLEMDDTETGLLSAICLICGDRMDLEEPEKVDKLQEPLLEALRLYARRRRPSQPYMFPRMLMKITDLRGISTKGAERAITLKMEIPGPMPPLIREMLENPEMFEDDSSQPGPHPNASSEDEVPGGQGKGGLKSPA
pKd: −log10 of the molar value.
For each record, write down the corresponding pKd.

Here are 8 molecules together with their reported answers.
COc1cc(C#CC2=CCC(/C=C(\C)C(=O)O)C=C2)cc2c1C(N(C)C1CC1)CCC2(C)C (stereo not shown); < 5.00
CC1(C)CC2(CC2)Oc2c(C3CC3)cc(C#Cc3ccc(/C=C(\Cl)C(=O)O)cc3)cc21; < 5.00
COc1cc(C#Cc2ccc(CC(=O)O)cc2)cc2c1C(N(C)C1CC1)CCC2(C)C (stereo not shown); 6.50
CC1(C)CC(C)(C)c2cc(C#Cc3ccc(CC(=O)O)c(F)c3)cc(O)c2O1; < 5.00
C/C(=C\c1ccc(C#Cc2cccc(CN(C)C3CC3)c2)cc1)C(=O)O; < 5.00
COc1cc(C#Cc2ccc(C(C)(C)C(=O)O)cc2)cc2c1C(N(C)C1CC1)CCC2(C)C (stereo not shown); 5.38
C=Cc1c(C)c(C#Cc2ccc(CC(=O)O)cc2)cc(C(C)(C)C)c1OC(C)C; 6.67
CCOC(=O)C1=CCC(C)(C)c2cc(C#Cc3ccc(CC(=O)O)c(F)c3)c(C)cc21; < 5.00

Each of the following entries comes with a recorded value; kindly state pKd for each.
1. CC(C(=O)O)c1ccc(C#Cc2ccc3c(c2)C(C)(C)CCC3N(C)C2CC2)cc1 (stereo not shown)
2. C/C(=C/C(=O)O)c1ccc(C#Cc2cccc(CN(C)C3CC3)c2)cc1

# output
["< 5.00", "< 5.00"]

Each of the following entries comes with a recorded value; kindly state pKd for each.
1. CC(C)c1cc(C(=O)Oc2ccc(/C=C/C(=O)O)cc2)cc2c1OC(C)(C)CC2(C)C
2. CCOC(=O)C1=CCC(C)(C)c2cc(C#Cc3ccc(CC(=O)O)c(F)c3)ccc21

# output
1. < 5.00
2. 5.05

Each of the following entries comes with a recorded value; kindly state pKd for each.
1. Cc1cc2c(cc1C#Cc1ccc(C(C)(C)C(=O)O)cc1)C(C)(C)CCC2N(C)C1CC1 (stereo not shown)
2. CC1(C)CC2(CC2)Oc2c(C3CC3)cc(C#Cc3ccc(C(C)(C)C(=O)O)cc3)cc21
3. C#Cc1c(C)c(C#Cc2ccc(CC(=O)O)cc2)cc(C(C)(C)C)c1OC(C)C
4. CN(C1CC1)C1CCC(C)(C)c2cc(C#Cc3ccc(C(C)(C)C(=O)O)cc3)cc(C3CC3)c21 (stereo not shown)

# output
< 5.00
5.25
6.59
< 5.00

* * *

Biological target: RAR α (Homo sapiens)
Sequence (P10276 1-462): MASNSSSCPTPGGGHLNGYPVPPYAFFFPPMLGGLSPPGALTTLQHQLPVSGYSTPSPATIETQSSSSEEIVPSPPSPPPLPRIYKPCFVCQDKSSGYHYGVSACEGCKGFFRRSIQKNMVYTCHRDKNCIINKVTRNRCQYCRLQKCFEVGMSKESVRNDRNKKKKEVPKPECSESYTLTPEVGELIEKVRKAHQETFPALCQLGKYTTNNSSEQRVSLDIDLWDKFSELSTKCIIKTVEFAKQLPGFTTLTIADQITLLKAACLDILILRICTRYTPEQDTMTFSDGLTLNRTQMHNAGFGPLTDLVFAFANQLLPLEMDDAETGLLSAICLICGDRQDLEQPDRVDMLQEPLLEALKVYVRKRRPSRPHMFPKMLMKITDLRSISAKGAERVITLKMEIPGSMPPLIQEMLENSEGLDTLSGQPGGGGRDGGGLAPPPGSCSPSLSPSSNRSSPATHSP
Assay: RAR α Kd
Format: binding
Conditions: last item of cell EC50/(EFFICACY)/Kd
pKd: −log10 of the molar value.
quantity: pKd

Here are 3 compounds together with their reported answers.
C#Cc1cc(NC(=O)Nc2ccc(C(=O)O)c(F)c2)cc2c1OC(C)(C)CC2(C)C [Compound 63]; < 4.00
CC(C)OC(=O)c1ccc(C#Cc2ccc(C(C)C(=O)O)cc2)cc1CN(C)C1CC1 (centres unmarked) [Compound 40]; < 5.00
CC(C)OC(=O)c1cccc(C#Cc2ccc(CC(=O)O)c(F)c2)c1 [Compound 44]; < 5.00

Each of the following entries comes with a recorded value; kindly state pKd for each.
1. CC(C(=O)O)c1ccc(C#Cc2cc(O)c3c(c2)C(C)(C)CC(C)(C)O3)cc1 (centres unmarked) [Compound 11]
2. CCOC(=O)c1cc(C#Cc2ccc(CC(=O)O)cc2)cc2c1C(N(C)C1CC1)CCC2(C)C (centres unmarked) [Compound 24]
3. C=Cc1c(C)c(C#Cc2ccc(CC(=O)O)cc2)cc(C(C)(C)C)c1OC(C)C [Compound 46]
4. CN(Cc1cccc(C#Cc2ccc(/C=C/C(=O)O)cc2)c1)C1CC1 [Compound 31]
5. CC(C(=O)O)c1ccc(C#Cc2ccc3c(c2)C(C)(C)CCC3N(C)C2CC2)cc1 (centres unmarked) [Compound 51]

# output
< 5.00
5.07
7.07
< 5.00
< 5.00

* * *

Molecular target: RAR α (Homo sapiens)
Sequence (P10276 1-462): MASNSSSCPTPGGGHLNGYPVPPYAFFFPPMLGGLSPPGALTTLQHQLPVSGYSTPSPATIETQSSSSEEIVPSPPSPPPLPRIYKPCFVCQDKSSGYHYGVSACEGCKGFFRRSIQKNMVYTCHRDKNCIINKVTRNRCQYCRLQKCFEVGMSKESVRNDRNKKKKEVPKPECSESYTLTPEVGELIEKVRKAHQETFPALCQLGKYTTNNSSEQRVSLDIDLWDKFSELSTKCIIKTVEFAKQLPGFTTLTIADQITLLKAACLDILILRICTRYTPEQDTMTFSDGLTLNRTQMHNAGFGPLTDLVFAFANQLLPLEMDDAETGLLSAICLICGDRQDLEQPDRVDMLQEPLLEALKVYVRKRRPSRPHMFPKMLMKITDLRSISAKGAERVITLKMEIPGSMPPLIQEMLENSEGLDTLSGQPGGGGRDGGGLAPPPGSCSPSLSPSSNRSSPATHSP
Assay: RAR α Kd
Assay type: binding
Settings: last item of cell EC50/(EFFICACY)/Kd
quantity: Kd (µM)
One number for each entry, in µM.

CN(Cc1cc(C#Cc2ccc(CC(=O)O)cc2)cc2c1OC(C)(C)CC2(C)C)C1CC1; 3.41

# evaluate next
# input // lookup Kd for CC(C)c1cc(C(=O)Oc2ccc(/C=C/C(=O)O)cc2)cc2c1OC(C)(C)CC2(C)C
# output 3.08

* * *

biological target: RAR β (Homo sapiens, UniProt P10826); assay: RAR β Kd; format: binding; conditions: last item of cell EC50/(EFFICACY)/Kd
Sequence (P10826 whole entry): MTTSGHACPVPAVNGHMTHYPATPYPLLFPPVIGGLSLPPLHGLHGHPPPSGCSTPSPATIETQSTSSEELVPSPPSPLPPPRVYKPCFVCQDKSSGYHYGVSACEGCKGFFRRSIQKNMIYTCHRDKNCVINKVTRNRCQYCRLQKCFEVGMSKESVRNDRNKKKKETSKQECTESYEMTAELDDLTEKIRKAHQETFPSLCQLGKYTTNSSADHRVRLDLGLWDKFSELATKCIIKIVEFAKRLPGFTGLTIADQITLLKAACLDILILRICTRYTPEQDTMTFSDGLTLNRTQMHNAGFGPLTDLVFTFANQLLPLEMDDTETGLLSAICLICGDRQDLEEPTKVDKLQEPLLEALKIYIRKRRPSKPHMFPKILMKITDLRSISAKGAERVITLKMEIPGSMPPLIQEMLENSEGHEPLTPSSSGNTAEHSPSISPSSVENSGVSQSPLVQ
quantity: pKd
One number for each entry, as −log10 of the molar value.

C=Cc1c(C)c(C#Cc2ccc(CC(=O)O)cc2)cc(C(C)(C)C)c1OC(C)C; 7.35

# input Record lookup: for RAR β (Homo sapiens, UniProt P10826), what pKd belongs to Cc1cc2c(cc1C#Cc1ccc(C(C)(C)C(=O)O)cc1)C(C)(C)CCC2N(C)C1CC1 (stereo not shown) ?
# output 5.41

* * *

biological target: CYP26B (P450RAI-2) (Homo sapiens); construct: expressed in transfected cells; host or cells: HeLa; assay: Cell-based inhibition of RA metabolism in CYP26B stably transfected HeLa cells; conditions: Table 3; stably transfected HeLa cells, [3H]-RA, 3 hours at 37° C.; read-out: CYP26B Intact cells IC50
Sequence (Q9NR63 whole entry): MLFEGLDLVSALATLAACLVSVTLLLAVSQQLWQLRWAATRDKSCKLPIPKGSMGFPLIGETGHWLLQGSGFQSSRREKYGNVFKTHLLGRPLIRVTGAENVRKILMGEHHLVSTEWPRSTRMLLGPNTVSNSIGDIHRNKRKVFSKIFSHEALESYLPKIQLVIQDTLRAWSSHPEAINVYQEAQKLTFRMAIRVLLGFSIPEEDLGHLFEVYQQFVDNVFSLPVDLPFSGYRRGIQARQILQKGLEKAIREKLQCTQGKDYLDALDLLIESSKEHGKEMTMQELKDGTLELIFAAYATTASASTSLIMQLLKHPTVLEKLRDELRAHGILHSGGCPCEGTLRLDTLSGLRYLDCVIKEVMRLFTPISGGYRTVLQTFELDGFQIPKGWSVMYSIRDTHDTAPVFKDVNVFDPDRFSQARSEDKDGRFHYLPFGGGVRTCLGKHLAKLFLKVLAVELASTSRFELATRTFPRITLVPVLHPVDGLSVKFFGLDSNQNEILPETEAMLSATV
For each record, write down the corresponding IC50.

CN(C1CC1)C1CCC(C)(C)c2cc(C#Cc3ccc(C(C)(C)C(=O)O)cc3)ccc21 (centres unmarked); > 10000 nM

# evaluate next
# input Record lookup: for CYP26B (P450RAI-2) (Homo sapiens), what IC50 belongs to CN(Cc1cccc(C#Cc2ccc(/C=C/C(=O)O)cc2)c1)C1CC1 ?
# output 600 nM

* * *

target: RAR β (Homo sapiens); experiment: RAR β Kd; format: binding; settings: last item of cell EC50/(EFFICACY)/Kd
quantity: pKd
Answers are plain numbers, as −log10 of the molar value.

CCc1cc(C#Cc2ccc(C(C)(C)C(=O)O)cc2)cc2c1C(N(C)C1CC1)CCC2(C)C (centres unmarked); 5.29
CC(C)c1cc(C(=O)Oc2ccc(/C=C/C(=O)O)cc2)cc2c1OC(C)(C)CC2(C)C; 6.09
Cc1ccc(CN(C)C2CC2)cc1C#Cc1ccc(/C=C/C(=O)O)cc1; 5.46
C/C(=C\c1ccc(C#Cc2cc(C3CC3)c3c(c2)C(C)(C)CC2(CC2)O3)cc1)C(=O)O; 6.28
CC(C)OC(=O)c1cccc(C#Cc2ccc(CC(=O)O)c(F)c2)c1; 5.09

Each of the following entries comes with a recorded value; kindly state pKd for each.
1. C#CCc1c(C)c(C#Cc2ccc(CC(=O)O)cc2)cc(C(C)(C)C)c1OC(C)C
2. C#Cc1cc(NC(=O)Nc2ccc(C(=O)O)c(F)c2)cc2c1OC(C)(C)CC2(C)C
3. CC1(C)CC2(CC2)Oc2c(C3CC3)cc(C#Cc3ccc(C(C)(C)C(=O)O)cc3)cc21
4. CN(c1cccc(C#Cc2ccc(/C=C/C(=O)O)cc2)c1)C1CC1
5. CCOC(=O)C1CCC(C)(C)c2cc(C#Cc3ccc(CC(=O)O)cc3)c(C)cc21 (centres unmarked)
6. C#Cc1c(C)c(C#Cc2ccc(CC(=O)O)cc2)cc(C(C)(C)C)c1OC(C)C

# output
1. 5.35
2. 4.96
3. 5.46
4. 5.15
5. 5.30
6. 7.12
